test: Caco-2 efflux ratio; assay type: in vitro ADME; conditions: human
readout_type: efflux ratio
Answer with the value's number alone.

Problem: Report efflux ratio for CC(C)OC(=O)c1cc(Nc2ccc3c(c2)CC(=O)N3C)n2nccc2n1 please.
Solution: 0.72

====

molecular target: BCL6 BTB (Homo sapiens, UniProt P41182); construct: the tag was removed by HRV-3C protease treatment, generating a simpler BCL6 5–129 product; Thioredoxin (N, cleaved yes); 6His (N, cleaved yes); made in house; host or cells: E. coli BL21-AI; assay: 19F ligand-observed NMR TFA-WVIP-NH2 peptide displacement assay; type: binding; conditions: 200 µM compound, 200 µM TFA-WVIP-NH2, 6 µM BCL6 BTB; mean ± SD, n=2; hit if ≥ 30%
readout_type: 19F LO-NMR, % peptide displaced (%)
The answer is to be given in %; state only the numeric part.

Problem: Report 19F LO-NMR, % peptide displaced for O=C(NCCCN1CCOCC1)c1csc(Nc2cccc3ccccc23)n1 [Compound 15] please.
Solution: 70

Problem: Follow-up entry: Cc1ccccc1C1CC(c2ccccc2)Nc2ncnn21 (stereo not drawn) [Compound 1]
Solution: 61

Problem: Follow-up entry: Fc1ccc(C2CC(c3cccc4ccccc34)n3ncnc3N2)cc1 (stereo not drawn) [Compound 3]
Solution: 54

Problem: Follow-up entry: Cc1cc(NCc2ccc3c(c2)OCO3)n2ncnc2n1 [Compound 9]
Solution: 49.5

Problem: Follow-up entry: O=C(NCc1ccccn1)c1csc(Nc2ccccc2Cl)n1 [Compound 14]
Solution: 78

Problem: Follow-up entry: CC(C)CCn1c(SCC(=O)Nc2ccccc2F)nc2nccnc2c1=O [Compound 22]
Solution: 23
